Please respond with reported melting point for every item in the list.
Residues, ends and D or L forms follow the SMILES beside them. *: point of attachment. Boc = CC(C)(C)OC(=O)*; Bn = c1ccc(C*)cc1

Consider the worked cases shown below.
[
  {
    "molecule": "CC(C)NC(=S)N1CCc2[nH]cnc2C1c1ccccc1 (stereo not given)",
    "result": "198 °C"
  },
  {
    "molecule": "Nc1cccc(OC2CCCCO2)c1O (stereo not given)",
    "result": "163 to 166 °C"
  },
  {
    "molecule": "Cc1ccc(-c2ccc(S(N)(=O)=O)cc2)n1-c1ccc(Cl)cc1",
    "result": "152 to 154 °C"
  },
  {
    "molecule": "COCCOc1cc2ncnc(NC3=CC(=O)C(N(C)c4ccc(OC)cc4)=CC3=O)c2cc1OC",
    "result": "197 to 198 °C"
  },
  {
    "molecule": "CCCCCCCCCC(=O)OC1CCC2C3CCC4=CC(=O)CCC4C3CCC12CC (stereo not given)",
    "result": "97 to 97.5 °C"
  },
  {
    "molecule": "O=C(O)CCNC(=O)C(=Cc1cc(F)cc(F)c1)CS",
    "result": "125 °C"
  },
  {
    "molecule": "CCNc1nc(OC)c(C(=O)NCC2CCCN2C2CCCCC2)nc1Cl (stereo not given)",
    "result": "164 to 165 °C"
  },
  {
    "molecule": "O=c1cnn(-c2ccc(Cl)c(C(c3ccc(Cl)cc3)c3nc(-c4ccccc4)c(CNC(=S)Nc4ccccc4)s3)c2Cl)c(=O)[nH]1 (stereo not given)",
    "result": "159 °C"
  }
]

# batch size: 8; output melting point per entry
1. O=C(O)c1cc(/C=C/c2ccc(O)cc2)ccc1O
2. COc1cccc2c(=O)n(S(=O)(=O)c3ccc(Cl)cc3)c(=O)[nH]c12
3. CC(C)n1cc(I)c2c(Cl)ncnc21
4. COc1cc(C(C)C)c(Oc2cnc(N[C@H](C)CO)nc2N)cc1Cl
5. Oc1ccc(Nc2nc(Cl)nc(NCc3ccco3)n2)cc1
6. CC(NC(=O)C(Cc1ccc(OCc2ccccc2)cc1)NC(=O)OC(C)(C)C)C(=O)NCC(=O)O (stereo not drawn) (Boc-Tyr(Bn)-Ala-Gly-OH; configuration not given here)
7. Cc1cc(-c2ccc(C(F)(F)F)cc2)nc(Oc2cccc(C(F)(F)F)c2)n1
8. OCc1ccc2c(n1)C(CNCCCCCCOCCC#Cc1ccc(F)cc1)OC(c1ccccc1)O2 (stereo not given)

1. 241 to 243 °C
2. 220 to 222 °C
3. 116 to 118 °C
4. 111 to 117 °C
5. 188 to 190 °C
6. 104 to 107 °C
7. 124 to 127 °C
8. 83 to 85 °C

# batch size: 4; output melting point per entry
1. CCOC(=O)c1csc(/C=C/c2cccc([N+](=O)[O-])c2)n1
2. OCCCn1c(S)nc2ccccc21
3. CCCCCCCCCCCCCCCC(=O)OCC1OC(n2cc(C)c(=O)[nH]c2=O)CC1F (stereo not given)
4. CCCC(O)c1cnc2nc(C)c(OCC)cc2c1Nc1ccc(OC)cc1 (stereo not given)

1. 151 to 153 °C
2. 110 °C
3. 65 to 66 °C
4. 120 to 124 °C

The measurements presented in this section are drawn from a melting point compilation (Tetko et al.; mined from patent text by program, amines drawn as free bases though some values may be those of a salt).
